self-splicing fitness (ln) overview
assay: self-splicing fitness, log relative to wild type (ln ratio); higher = more splicing; Tetrahymena group I intron in knt gene, E. coli kanamycin selection, DiMSum; sequences stand for … in CUCUCU…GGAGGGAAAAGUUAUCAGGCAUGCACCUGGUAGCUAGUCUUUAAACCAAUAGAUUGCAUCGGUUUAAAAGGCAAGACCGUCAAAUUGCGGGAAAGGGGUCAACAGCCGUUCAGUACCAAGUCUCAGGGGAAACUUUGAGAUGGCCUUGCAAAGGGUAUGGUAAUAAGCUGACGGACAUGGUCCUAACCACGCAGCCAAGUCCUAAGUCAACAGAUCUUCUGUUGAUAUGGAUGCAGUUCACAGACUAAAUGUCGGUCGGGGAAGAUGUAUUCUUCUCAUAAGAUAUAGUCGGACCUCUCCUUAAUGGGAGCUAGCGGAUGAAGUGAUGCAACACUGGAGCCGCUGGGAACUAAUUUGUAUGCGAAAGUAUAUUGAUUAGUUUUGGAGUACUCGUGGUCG; details: 30 °C;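 also: selection with 25 µg/mL kanamycin versus none on LB agar overnight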

[
  {
    "querySequence": "GAUGAGCAAUAUUACGAUCA",
    "self-splicing fitness (ln)": -2.17
  }
]

Please look at this sequence and report its self-splicing fitness (ln): AGGAAGCAAUAUUACGCUUG
-2.64

Please look at this sequence and report its self-splicing fitness (ln): AUCGAGCAAUAUUACGAGCG
-2.35

Please look at this sequence and report its self-splicing fitness (ln): AAAGAGCAAUAUUACGAGAA
-2.11

Please look at this sequence and report its self-splicing fitness (ln): UAAGAGCAAUAUUACGGCUA
-1.03

Please look at this sequence and report its self-splicing fitness (ln): CACCAGCAAUAUUACGAGAA
-3.55

Please look at this sequence and report its self-splicing fitness (ln): AAUUAGCAAUAUUACGCAUU
-2.52

Please look at this sequence and report its self-splicing fitness (ln): CAACAGCAAUAUUACGAGAG
-3.41

Please look at this sequence and report its self-splicing fitness (ln): GGUAAGCAAUAUUACGCUGA
-2.82

Data origin: the supplement of paper PMC7877785
